Here the recorded remaining activity at 0.005 % is given for each entry.
- study target: firefly luciferase (Photinus pyralis)
- Sequence (P08659 whole entry): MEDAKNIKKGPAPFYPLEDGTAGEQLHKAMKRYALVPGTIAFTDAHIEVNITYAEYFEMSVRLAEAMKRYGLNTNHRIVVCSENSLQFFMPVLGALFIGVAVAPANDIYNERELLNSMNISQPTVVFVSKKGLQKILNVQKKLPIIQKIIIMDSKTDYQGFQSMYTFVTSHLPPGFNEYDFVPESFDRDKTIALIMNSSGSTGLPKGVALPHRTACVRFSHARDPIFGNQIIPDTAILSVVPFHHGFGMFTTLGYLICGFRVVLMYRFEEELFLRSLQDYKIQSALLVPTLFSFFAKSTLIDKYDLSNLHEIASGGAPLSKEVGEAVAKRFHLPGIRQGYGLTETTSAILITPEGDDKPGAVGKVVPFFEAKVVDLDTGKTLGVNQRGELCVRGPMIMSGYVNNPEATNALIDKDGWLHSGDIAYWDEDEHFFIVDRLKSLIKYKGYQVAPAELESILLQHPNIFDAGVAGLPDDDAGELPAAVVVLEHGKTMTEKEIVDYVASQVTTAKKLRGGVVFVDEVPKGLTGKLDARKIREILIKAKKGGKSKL
- assay remarks: Detergent titration with Tergitol NP-9, digitonin or no lysing agent, firefly luciferase (Example 4)
- Type: biochemical
- particulars: 0.0050% detergent; Dig; read-out: Relative Firefly Luc Intensity
Give your result in % as a bare value.

Illustrative cases are given below, each with its answer.
molecule: CCCCC[N+](CCCCC)(CCCCC)CCCCC.[Br-] [Tetrapentylammonium bromide]
remaining activity at 0.005 % / %: 104
--
molecule: CCCCCCCCCCCCCCCC[N+](C)(C)C.[Cl-] [Cetyltrimethylammonium chloride]
remaining activity at 0.005 % / %: 65
--
molecule: CCCCCCCCCCCCCC[N+](C)(C)Cc1ccccc1.[Br-] [Benzyldimethyltetradecylammonium bromide]
remaining activity at 0.005 % / %: 128
--
molecule: CCCCCCCCCCCC[N+](C)(C)C.[Br-] [Dodecyltrimethylammonium bromide]
remaining activity at 0.005 % / %: 128
--
molecule: CCCCCCCCCCCC[N+](C)(C)Cc1ccccc1.[Br-] [Benzyldimethyldodecylammonium bromide]
remaining activity at 0.005 % / %: 139

State its remaining activity at 0.005 % for this molecule: Cc1cc(C)c(C[N+](C)(C)C)cc1C.[Br-]
52

====

- study target: Renilla luciferase (Renilla reniformis)
- assay remarks: Detergent titration with Tergitol NP-9, digitonin or no lysing agent, Renilla luciferase (Example 4)
- Type: biochemical
- particulars: 0.0050% detergent; Dig
Reported Selective Inhibition (Ff Luc Inh/Ren Luc Inh) values for the following compounds.
Write the number on its own, no unit after it.

Would you please look over these solved cases?
compound: CCCCCCCCCCCCCCCC[N+](C)(C)C.[Cl-] [Cetyltrimethylammonium chloride]
measurement: 2829

compound: Cc1cc(C)c(C[N+](C)(C)C)cc1C.[Br-]
measurement: 18

compound: CCCCCCCCCCCCCC[N+](C)(C)Cc1ccccc1.[Br-] [Benzyldimethyltetradecylammonium bromide]
measurement: 5067

compound: CCCCC[N+](CCCCC)(CCCCC)CCCCC.[Br-] [Tetrapentylammonium bromide]
measurement: 1.2

compound: CCCCCCCCCCCC[N+](C)(C)C.[Br-] [Dodecyltrimethylammonium bromide]
measurement: 2.3

Return value of Selective Inhibition (Ff Luc Inh/Ren Luc Inh) for input CCCCCCCCCCCC[N+](C)(C)Cc1ccccc1.[Br-] [Benzyldimethyldodecylammonium bromide] , no commentary.
29

====

- study target: Renilla luciferase (Renilla reniformis, UniProt P27652)
- Sequence (P27652 whole entry): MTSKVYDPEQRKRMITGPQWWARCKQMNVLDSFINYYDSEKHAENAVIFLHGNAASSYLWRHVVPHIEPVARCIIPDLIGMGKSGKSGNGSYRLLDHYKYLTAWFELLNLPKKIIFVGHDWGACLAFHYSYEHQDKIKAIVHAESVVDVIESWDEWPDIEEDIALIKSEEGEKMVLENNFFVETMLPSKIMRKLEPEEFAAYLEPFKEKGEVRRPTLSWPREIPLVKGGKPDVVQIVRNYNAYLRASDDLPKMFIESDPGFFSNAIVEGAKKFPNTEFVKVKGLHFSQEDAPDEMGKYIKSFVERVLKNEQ
- assay remarks: Quaternary ammonium/phosphonium detergent screen, Renilla luciferase (Example 5)
- Assay type: biochemical
- particulars: final conc. 0.10% detergent; Tergitol NP-9 present; read-out: Retained Renilla Luciferase Luminescence (%)
measure: remaining activity at 0.1 % (%)
The figure you give is taken to be in %; do not add the unit.

compound: CCCCCCCCCCC(C(=O)c1ccc(OC)cc1)[N+](C)(C)C.[Br-] (centres unmarked)
measurement: 2

compound: C[P+](C)(Cc1ccc([N+](=O)[O-])cc1)c1ccccc1.[Br-]
measurement: 49

compound: C=C(C)[P+](C)(c1ccccc1)c1ccccc1.[I-]
measurement: 51

compound: CCCCCCCCCCCCCCCC[N+](C)(C)Cc1ccccc1.[Cl-] [Benzyldimethylhexadecylammonium chloride]
measurement: 3

compound: C=CCCC[P+](c1ccccc1)(c1ccccc1)c1ccccc1.[Br-]
measurement: 21

compound: CC=CC[P+](Cc1ccccc1)(c1ccccc1)c1ccccc1.[Br-]
measurement: 14

compound: CC[N+](C)(C)c1cccc(O)c1 [Edrophonium chloride]
measurement: 89

compound: CCCCCCCCCC[N+](C)(C)Cc1ccccc1.[Cl-] [Benzyldimethyldecylammonium chloride]
measurement: 1

Identify the reported remaining activity at 0.1 % for the following entry. CCCCCCCCCCCC[N+](C)(C)Cc1ccccc1.[Br-] [Benzyldimethyldodecylammonium bromide]
2

Give the measured remaining activity at 0.1 % for CCCC[P+](CCCC)(CCCC)Cc1ccc(C)cc1.[Cl-]
32

State its remaining activity at 0.1 %: CC[P+](CC)(CC)Cc1ccccc1.[Br-] [Benzyltriethylphosphonium bromide]
51

Reference source: patent US20080248511A1
